conditions: in ethanol, 278.15 K
assayEndpoint: solubility (mole fraction)
The answer should be a number; do not append a unit.

Entry under test: COc1ccc2nc(S(=O)Cc3ncc(C)c(OC)c3C)[nH]c2c1 (stereo unspecified) . Its solubility (mole fraction) was 0.00157

---

conditions: in ethyl acetate, 278.15 K
assayEndpoint: solubility (mole fraction)
The answer should be written as a number, with no unit following it.

Lab book: solubility (mole fraction) of COc1ccc2nc(S(=O)Cc3ncc(C)c(OC)c3C)[nH]c2c1 (stereo unspecified) noted as 0.000981

---

details: in methanol, 303.15 K
assayEndpoint: solubility (mole fraction)

Sure, the documented solubility (mole fraction) for COc1ccc2nc(S(=O)Cc3ncc(C)c(OC)c3C)[nH]c2c1 (stereo unspecified) is 0.00686

---

details: in acetonitrile, 308.15 K
assayEndpoint: solubility (mole fraction)
Number only, please.

Form field solubility (mole fraction), entry COc1ccc2nc(S(=O)Cc3ncc(C)c(OC)c3C)[nH]c2c1 (stereo unspecified) : 0.00429

---

settings: in THF, 328.15 K
assayEndpoint: solubility (mole fraction)
Note: the reply should be a number with no unit written.

Documented solubility (mole fraction) of COc1ccc2nc(S(=O)Cc3ncc(C)c(OC)c3C)[nH]c2c1 (stereo unspecified) : 0.0663

---

conditions: in THF, 283.15 K
assayEndpoint: solubility (mole fraction)

The compound listed as COc1ccc2nc(S(=O)Cc3ncc(C)c(OC)c3C)[nH]c2c1 (stereo unspecified) shows solubility (mole fraction) equal to 0.00644

---

settings: in water, 318.15 K
assayEndpoint: solubility (mole fraction)
Please state the value as a number alone, without comment.

solubility (mole fraction) in this record for COc1ccc2nc(S(=O)Cc3ncc(C)c(OC)c3C)[nH]c2c1 (stereo unspecified) : 0.000196

---

conditions: in ethanol, 298.15 K
assayEndpoint: solubility (mole fraction)
Answer as a number with no unit attached.

The recorded solubility (mole fraction) for entry COc1ccc2nc(S(=O)Cc3ncc(C)c(OC)c3C)[nH]c2c1 (stereo unspecified) equals 0.00347
